Origin of the recorded values: patent US20070191420A1

// reported IC50 per item
- Measured Target: PKC zeta (Homo sapiens)
- Construct: purchased Invitrogen 9232
- Sequence (Q05513 1-592): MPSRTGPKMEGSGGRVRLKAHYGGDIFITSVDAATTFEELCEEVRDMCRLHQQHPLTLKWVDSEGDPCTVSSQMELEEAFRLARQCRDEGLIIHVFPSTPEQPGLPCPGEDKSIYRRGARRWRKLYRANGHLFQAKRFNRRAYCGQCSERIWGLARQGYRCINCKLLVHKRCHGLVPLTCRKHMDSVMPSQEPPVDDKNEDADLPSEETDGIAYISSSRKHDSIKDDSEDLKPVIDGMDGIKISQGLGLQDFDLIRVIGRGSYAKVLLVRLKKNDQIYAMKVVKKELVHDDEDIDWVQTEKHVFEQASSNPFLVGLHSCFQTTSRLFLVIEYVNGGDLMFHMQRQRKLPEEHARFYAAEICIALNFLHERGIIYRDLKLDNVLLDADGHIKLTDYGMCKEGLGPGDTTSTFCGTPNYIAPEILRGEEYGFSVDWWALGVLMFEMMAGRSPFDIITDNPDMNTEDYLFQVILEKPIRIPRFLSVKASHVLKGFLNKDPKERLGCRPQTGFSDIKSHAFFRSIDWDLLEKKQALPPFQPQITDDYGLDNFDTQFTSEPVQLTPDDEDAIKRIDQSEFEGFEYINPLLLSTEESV
- Method Description: Fluorescence polarization (FP) PKC inhibition assay, Protein Kinase C Assay Kit, Red (Invitrogen)
- Assay type: biochemical
- Condition Summary: enzyme 20 ng/ml, ATP 2.5 μM, substrate […] 1 μM

[
  {
    "Compound": "CC(N)c1ccc(C(=O)Nc2ccnc3[nH]ccc23)s1 (stereo not drawn)",
    "Measured Target": "PKC zeta (Homo sapiens)",
    "IC50": "> 100 µM"
  },
  {
    "Compound": "NC(c1ccc(F)cc1)c1ccc(C(=O)Nc2ccncc2)cc1 (stereo not drawn)",
    "Measured Target": "PKC zeta (Homo sapiens)",
    "IC50": "> 100 µM"
  },
  {
    "Compound": "NC(c1ccc(C(=O)Nc2ccnc3[nH]ccc23)cc1)C1CCCC1 (stereo not drawn)",
    "Measured Target": "PKC zeta (Homo sapiens)",
    "IC50": "> 100 µM"
  },
  {
    "Compound": "COc1ccc(C(N)c2ccc(C(=O)Nc3ccncc3)cc2)cc1 (stereo not drawn)",
    "Measured Target": "PKC zeta (Homo sapiens)",
    "IC50": "> 100 µM"
  },
  {
    "Compound": "NC[C@H]1CC[C@H](C(=O)Nc2ccccc2)CC1",
    "Measured Target": "PKC zeta (Homo sapiens)",
    "IC50": "40.3 µM"
  }
]

So what's the measured IC50 for this one? NC(c1ccc(C(=O)Nc2ccncc2)cc1)C1CCCCC1 (stereo not drawn)
> 100 µM

So what's the measured IC50 for this one? CC(N)c1ccc(C(=O)Nc2ccncc2)c2ccccc12 (stereo not drawn)
6.4 µM

So what's the measured IC50 for this one? "NCc1ccc(C(=O)Nc2ccncc2)cc1"
51.4 µM

So what's the measured IC50 for this one? "NCc1cccc(C(=O)Nc2ccncc2)c1"
> 100 µM

So what's the measured IC50 for this one? CC(N)c1ccc(C(=O)Nc2ccnc3[nH]ccc23)cc1 (stereo not drawn)
> 100 µM

So what's the measured IC50 for this one? CC(N)c1ccc(C(=O)Nc2ccncc2)s1 (racemic)
45.9 µM

So what's the measured IC50 for this one? "NCc1ccc(S(=O)(=O)Nc2ccncc2)cc1"
> 100 µM

So what's the measured IC50 for this one? CC(O)c1ccc(C(=O)Nc2ccncc2)cc1 (stereo not drawn)
> 100 µM

So what's the measured IC50 for this one? "NCc1ccc(C(=O)Nc2ccncc2)o1"
> 100 µM

So what's the measured IC50 for this one? CCC(N)c1ccc(C(=O)Nc2ccncc2)cc1 (stereo not drawn)
25.4 µM

So what's the measured IC50 for this one? CC(C)(C)C1CCC(C(=O)Nc2ccncc2)CC1 (stereo not drawn)
> 100 µM

So what's the measured IC50 for this one? "NCCCCCC(=O)Nc1ccncc1"
> 100 µM

So what's the measured IC50 for this one? "O=C(Nc1ccnc2[nH]ccc12)c1ccc2c(c1)CCNC2"
> 100 µM

So what's the measured IC50 for this one? "NC[C@H]1CC[C@H](C(=O)Nc2cccnc2)CC1"
> 100 µM

So what's the measured IC50 for this one? "NC[C@H]1CC[C@H](C(=O)NCc2ccncc2)CC1"
> 100 µM

So what's the measured IC50 for this one? O=C(Nc1ccncc1)c1ccc(C2CCCCN2)cc1 (stereo not drawn)
> 100 µM
